tested on: Escherichia coli TOP10; experiment: shrunken log2 fold change of peptide-encoding DNA abundance (4.5 h post-induction vs induction); higher = less antimicrobial activity (less host growth inhibition); settings: time post-induction: 4.5 h; library: site-saturation at positions 5, 18, 19, 20
Entries and their measured shrunken log2 fold change follow.
Property: shrunken log2 fold change

1) RRIRIRPPRLPRPRPRPMPDPRP : 0.0702
2) RRIRTRPPRLPRPRPRPIYNPRP : -0.254
3) RRIRTRPPRLPRPRPRPLHRPRP : -0.287
4) RRIRLRPPRLPRPRPRPMRHPRP : 0.188

---

tested on: Escherichia coli TOP10; assay: shrunken log2 fold change of peptide-encoding DNA abundance (4.5 h post-induction vs induction); higher = less antimicrobial activity (less host growth inhibition); settings: time post-induction: 4.5 h; library: site-saturation at positions 5, 18, 19, 20;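 also: peptides expressed intracellularly from a pBAD plasmid library in pooled LB shake-flask culture, induced with 0.3% L-arabinose, DNA abundance read by NGS, three biological replicates, DESeq2 with apeglm shrinkage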
Grouping key: shrunken log2 fold change. Bins: lowest = under -0.1, middle = from -0.1 up to 0.02, highest = 0.02 and over

1) RRIRSRPPRLPRPRPRPSPYPRP : lowest
2) RRIRHRPPRLPRPRPRPPTDPRP : lowest
3) RRIRHRPPRLPRPRPRPIDRPRP : lowest
4) RRIRKRPPRLPRPRPRPGYWPRP : middle
5) RRIRARPPRLPRPRPRPCEPPRP : highest
6) RRIRKRPPRLPRPRPRPLNLPRP : lowest
7) RRIRDRPPRLPRPRPRPWNHPRP : middle
8) RRIRLRPPRLPRPRPRPCQSPRP : middle
9) RRIRERPPRLPRPRPRPAWEPRP : highest
10) RRIRPRPPRLPRPRPRPRFKPRP : highest
11) RRIRTRPPRLPRPRPRPAENPRP : highest
12) RRIRKRPPRLPRPRPRPHYYPRP : middle
